Data origin, for the record: patent US7947688B2

- target desc: α2-GABAA receptor (Rattus norvegicus, UniProt P18508+P23576)
- assay explanation: Ligand-binding assay, radiolabeled flumazenil competition, rat spinal cord membranes
- recorded conditions: read-out: % Inhibition (10^−5 M), affinity for α2-GABAA receptor
Label 0 if inhibition at 10 µM falls below 80%; label 1 in every other case.

INSERT INTO results (structure_string, class_assignment) VALUES
  ('CC(C)S(=O)(=O)N(C)c1cccc(-c2ccnc3c(C#N)cnn23)c1', 1);

Task: Answer whether inhibition at 10 µM of CCN(c1cccc(-c2ccnc3c(C#N)cnn23)c1)S(=O)(=O)CC is greater than or equal to 80%.
Result: 1

Task: Field entry: CN(c1cccc(-c2ccnc3c(C(=O)c4cccs4)cnn23)c1)S(=O)(=O)c1ccccc1Cl
Result: 1

Task: Field entry: CN(c1cccc(-c2ccnc3c(C(=O)c4cccs4)cnn23)c1)S(=O)(=O)c1ccc(Cl)cc1
Result: 0

Task: Field entry: Cc1ccc(C(=O)c2cnn3c(-c4cccc(N(C)S(C)(=O)=O)c4)ccnc23)cc1
Result: 1

Task: Field entry: Cc1nc(C)c(S(=O)(=O)N(C)c2cccc(-c3ccnc4c(C(=O)c5cccs5)cnn34)c2)s1
Result: 1

Task: Field entry: C#CCN(c1cccc(-c2ccnc3c(C#N)cnn23)c1)S(=O)(=O)CC
Result: 0

Task: Field entry: CN(c1cccc(-c2ccnc3c(C(=O)c4ccc(F)cc4)cnn23)c1)S(C)(=O)=O
Result: 1

###

- target desc: α2-GABAA receptor (Rattus norvegicus, UniProt P18508+P23576)
- assay explanation: Ligand-binding assay, radiolabeled flumazenil competition, rat spinal cord membranes
- recorded conditions: read-out: % Inhibition (10^−5 M), affinity for α2-GABAA receptor
Label not fulfilled if inhibition at 10 µM falls below 70%; label fulfilled in every other case.

Worked set:
INSERT INTO assay_data (structure_string, class_assignment) VALUES
  ('O=C(c1cccs1)c1cnn2c(-c3cccc(N4CCCS4(=O)=O)c3)ccnc12', 'fulfilled'),
  ('CN(c1cccc(-c2ccnc3c(C(=O)c4cccs4)cnn23)c1)S(=O)(=O)CC(F)(F)F', 'not fulfilled'),
  ('C#CCN(c1cccc(-c2ccnc3c(C(=O)c4ccc(C)cc4)cnn23)c1)S(C)(=O)=O', 'fulfilled');

Task: Answer whether inhibition at 10 µM of C#CCN(c1cccc(-c2ccnc3c(C#N)cnn23)c1)S(=O)(=O)C(C)C is greater than or equal to 70%.
Result: fulfilled

Task: Field entry: CCCN(c1cccc(-c2ccnc3c(C(=O)c4cccs4)cnn23)c1)S(=O)(=O)CC
Result: fulfilled
